target_or_test_system: human GLP1R (Homo sapiens (Human))
assay_procedure: In vitro cAMP signal activation in human GLP1R stably-expressing cell line (hGLP1R-HEK293)
settings: cAMP concentration in hGLP1R-HEK293; 100% = 1 nM human GLP-1 (7-37)
Protocol: <Test Example 1> Measurement of In Vitro cAMP Signal Activation of a Compound in Human GLP1R A human GLP1R stably-expressing cell line (hGLP1R-HEK293) was used in the experiment. […] hGLP1R-HEK293 was seeded in 96 well plates at 2.0×10^4 cells per well and cultured over night. […] The cAMP concentration was quantified using cAMP HiRange kit (Cisbio Bioassays). […]
observed_property: pEC50
The read-out pEC50 is expressed as -log10 of concentration in moles per litre.

Enter reported pEC50 observed with human GLP1R (Homo sapiens (Human)) for COCCn1ncc2cc(-n3ccn(-c4c5c(nn4-c4cc(C)c(F)c(C)c4)CCN(C(=O)c4cc6cc([C@H]7CCO[C@@H](C)C7)ccc6n4[C@@]4(c6noc(=O)[nH]6)C[C@@H]4C)[C@H]5C)c3=O)ccc21 [compound 62]
8.96

Proceed to COCCn1ncc2c(F)c(-n3ccn(-c4c5c(nn4-c4cc(C)c(Cl)c(C)c4)CCN(C(=O)c4cc6cc([C@H]7CCOC(C)(C)C7)ccc6n4[C@@]4(c6noc(=O)[nH]6)C[C@@H]4C)[C@H]5C)c3=O)ccc21 [Example 43]
8.82

Proceed to Cc1cc(-n2nc3c(c2-n2ccn(-c4ccc5c(c4)CCOC5(C)C)c2=O)[C@H](C)N(C(=O)c2cc4cc(C5CCOCC5)ccc4n2[C@@]2(c4noc(=O)[nH]4)C[C@@H]2C)CC3)cc(C)c1F [Example 24]
8.60

----------
Quick reference for EC50 among some compounds
target_or_test_system: human GLP1R (Homo sapiens (Human), UniProt P43220)
Sequence (P43220 24-463): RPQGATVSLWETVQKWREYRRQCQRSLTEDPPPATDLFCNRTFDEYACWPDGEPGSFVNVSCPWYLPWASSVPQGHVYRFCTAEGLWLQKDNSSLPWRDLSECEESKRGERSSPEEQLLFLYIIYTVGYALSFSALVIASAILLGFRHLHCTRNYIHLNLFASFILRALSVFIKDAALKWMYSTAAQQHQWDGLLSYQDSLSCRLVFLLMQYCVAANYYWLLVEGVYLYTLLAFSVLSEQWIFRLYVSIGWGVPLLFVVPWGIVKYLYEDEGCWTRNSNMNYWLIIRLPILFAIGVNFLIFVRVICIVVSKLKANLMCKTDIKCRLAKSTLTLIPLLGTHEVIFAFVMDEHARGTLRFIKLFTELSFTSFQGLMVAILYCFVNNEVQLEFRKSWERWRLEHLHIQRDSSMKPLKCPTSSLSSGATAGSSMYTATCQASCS
assay_procedure: In vitro cAMP signal activation in human GLP1R stably-expressing cell line (hGLP1R-HEK293)
settings: cAMP concentration in hGLP1R-HEK293; 100% = 1 nM human GLP-1 (7-37)
A number alone suffices; assume nM.

Example entries begin here.
# compound, unit_string, EC50
records = [
    ("COCCn1ncc2cc(-n3ccn(-c4c5c(nn4-c4cc(C)c(F)c(C)c4)CCN(C(=O)c4cc6cc(C7CCOC(C)(C)C7)ccc6n4[C@@]4(c6noc(=O)[nH]6)C[C@@H]4C)C5)c3=O)ccc21 (some centres unmarked) [compound 76]", "nM", 2.4),
    ("COc1nccc(-c2ccc3c(c2)cc(C(=O)N2CCc4nn(-c5cc(C)c(F)c(C)c5)c(-n5ccn(-c6ccc7c(cnn7CC(C)(C)O)c6)c5=O)c4C2)n3[C@@]2(c3noc(=O)[nH]3)C[C@@H]2C)c1C [Example 6]", "nM", 2.9),
]

What measured EC50 goes with COCCn1ncc2c(F)c(-n3ccn(-c4c5c(nn4-c4ccc(F)c(C)c4)CCN(C(=O)c4cc6cc([C@H]7CCOC(C)(C)C7)ccc6n4[C@@]4(c6noc(=O)[nH]6)C[C@@H]4C)[C@H]5C)c3=O)ccc21 [Example 48] ?
3

Proceed to Cc1cc(-n2nc3c(c2-n2ccn(-c4ccc5c(cnn5CC(F)(F)F)c4F)c2=O)[C@H](C)N(C(=O)c2cc4cc(C5CCOCC5)ccc4n2[C@@]2(c4noc(=O)[nH]4)C[C@@H]2C)CC3)ccc1F [Example 46]
3.3

Proceed to Cc1cc(-n2nc3c(c2-n2ccn(-c4ccc5c(cnn5CCF)c4)c2=O)[C@H](C)N(C(=O)c2cc4cc(C5CCOCC5)ccc4n2[C@@]2(c4noc(=O)[nH]4)C[C@@H]2C)CC3)cc(C)c1F [Example 26]
0.77
